Reported IC50 values, UniProt:P22303.
Sequence (P22303 whole entry): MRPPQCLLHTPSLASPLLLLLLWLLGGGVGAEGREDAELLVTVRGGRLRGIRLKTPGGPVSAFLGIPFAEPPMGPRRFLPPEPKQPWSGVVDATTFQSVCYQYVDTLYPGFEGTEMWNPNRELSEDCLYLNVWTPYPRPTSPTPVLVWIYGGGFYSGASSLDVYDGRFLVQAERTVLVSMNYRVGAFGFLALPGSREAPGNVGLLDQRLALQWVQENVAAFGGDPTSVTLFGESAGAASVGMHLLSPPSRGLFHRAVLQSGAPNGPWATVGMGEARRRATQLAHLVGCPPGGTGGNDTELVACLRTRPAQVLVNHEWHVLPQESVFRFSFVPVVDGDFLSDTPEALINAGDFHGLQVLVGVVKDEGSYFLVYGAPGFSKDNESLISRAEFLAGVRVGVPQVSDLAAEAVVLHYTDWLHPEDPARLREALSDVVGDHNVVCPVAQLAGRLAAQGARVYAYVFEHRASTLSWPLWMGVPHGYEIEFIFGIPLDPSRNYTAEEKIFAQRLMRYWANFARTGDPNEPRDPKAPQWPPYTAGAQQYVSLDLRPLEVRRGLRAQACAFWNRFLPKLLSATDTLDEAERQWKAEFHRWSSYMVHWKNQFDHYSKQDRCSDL
Answer format: numeric, nM implied, no suffix.

Looking for the measured IC50 of `CCC/N=C1/CCc2c1n(C)c1ccc(OC(=O)NC)cc21` , can you help?
3840

Next: `CCCn1c2c(c3c(Br)c(OC(=O)NC)ccc31)CC/C2=N/CC`
230

Note, next up: `CC/N=C1/CCc2c1n(C)c1ccc(OC(=O)NC)c(Br)c21`
140

// same read-out, input: `C/N=C1/CCc2c1n(C)c1ccc(OC(=O)N(C)C)c(Br)c21`
60

Input `C/N=C1/CCc2c1n(C)c1ccc(OC(=O)NCc3ccccc3)c(Br)c21`
4190

Moving on to `CCCCNC(=O)Oc1ccc2c(c1Br)c1c(n2C)/C(=N\C)CC1`
3170

And `C/N=C1/CCc2c1n(C)c1ccc(OC(=O)NC)cc21` ?
3360

Try this compound too: `C/N=C1/CCc2c1n(C)c1ccc(OC(=O)NC)c(Cl)c21`
230

Then `C/N=C1/CCc2c1n(C)c1cc(Cl)c(OC(=O)NC)cc21` ?
670

What about `CCCCCCCNC(=O)Oc1ccc2c(c1)[C@]1(C)CCN(C)[C@@H]1N2C` ?
9

Try this compound too: `C/N=C1/CCc2c1n(C)c1ccc(OC(=O)NC)c(Br)c21`
180

Input `CNC(=O)Oc1ccc2c(c1)c1c(n2C)/C(=N\CCc2ccccc2)CC1`
160

What would you report for `CC/N=C1/CCc2c1n(C)c1ccc(OC(=O)NC)cc21` ?
5680

Proceed to `CC/N=C1/CCc2c1n(C)c1ccc(OC(=O)NC)c(Cl)c21`
160
